- procedure text: Microculture tetrazolium assay (MTA) cytotoxicity in PBMNC
- conditions used: human, peripheral blood mononuclear cells (PBMC), CC50, μM, viability of PBMC
property: CC50 at 5 days (µM)
# output: bare number, implied unit µM

Which CC50 at 5 days is listed for Cc1ccnc2c1NC(=O)c1cccnc1N2C1CC1 [nevirapine] ?
5.1

---

- procedure text: in vitro
- conditions used: human, IC50 [MTA]
property: IC50

Which IC50 is listed for Cc1cn([C@H]2C=C[C@@H](CO)O2)c(=O)[nH]c1=O [d4T, 2′,3′-didehydro-2′,3′-dideoxythymidine] ?
> 10 µM

---

- Tested on: AZT- and NNI-resistant HIV-1 (strain: RTMDR-1)
- procedure text: Inhibition of RTMDR-1 (HIV-MDR) replication in PBMNC (RT activity)
- Assay type: cell-based
- conditions used: Human immunodeficiency virus 1, read-out: HIV-MDR IC50 [RT]
property: pIC50
Notebook: values listed as pIC50 are -log10 of the concentration (mol/L).

COC(=O)C(C)NP(=O)(OC[C@H]1O[C@@H](n2cc(C)c(=O)[nH]c2=O)CC1N=[N+]=[N-])Oc1ccc(Br)cc1 (stereo partly drawn) [Compound 5c]    5.82
Cc1cn([C@H]2C[C@H](N=[N+]=[N-])[C@@H](CO)O2)c(=O)[nH]c1=O [AZT, 3′-azido-3′-deoxythymidine]    5.70

Then this molecule:
Which pIC50 is listed for COC(=O)C(C)NP(=O)(OC[C@@H]1C=C[C@H](n2cc(C)c(=O)[nH]c2=O)O1)Oc1ccc(Br)cc1 (stereo partly drawn) [Compound 1c] ?
7.70

---

- System: zidovudine-resistant primary clinical HIV-1 isolates
- procedure text: p24 drug susceptibility assay, NRTI-/zidovudine-resistant primary clinical HIV-1 isolates in PBMC
- Assay type: cell-based
- conditions used: Human immunodeficiency virus 1, PBMC, isolate X165-8 (D67N, T69N, K70R, K103N, Y181C, T215F, K219E); PBMC
Each entry below carries its reported pIC50.
Notebook: values listed as pIC50 are -log10 of the concentration (mol/L).

Cc1cn([C@H]2C[C@H](N=[N+]=[N-])[C@@H](CO)O2)c(=O)[nH]c1=O [AZT, 3′-azido-3′-deoxythymidine]    6.05

Then this compound:
Which pIC50 is listed for COC(=O)C(C)NP(=O)(OC[C@@H]1C=C[C@H](n2cc(C)c(=O)[nH]c2=O)O1)Oc1ccc(Br)cc1 (some centres unmarked) [Compound 1c] ?
7.89

---

Each entry below carries its reported IC50.
- Test system: NRTI-resistant recombinant HIV-1 isolates
- procedure text: p24 assay, multi-NRTI-resistant recombinant HIV-1 clones
- Format: cell-based
- conditions used: Human immunodeficiency virus 1, read-out: IC50 (nM), p24, recombinant clone 4755-5
# output: bare number, implied unit nM

COC(=O)C(C)NP(=O)(OC[C@@H]1C=C[C@H](n2cc(C)c(=O)[nH]c2=O)O1)Oc1ccc(Br)cc1 (stereo partly shown)    6

Which IC50 is listed for CC(C)(C)NC(=O)[C@@H]1CN(Cc2cccnc2)CCN1C[C@@H](O)C[C@@H](Cc1ccccc1)C(=O)N[C@H]1c2ccccc2C[C@H]1O ?
9.4

Which IC50 is listed for Cc1cn([C@H]2C[C@H](N=[N+]=[N-])[C@@H](CO)O2)c(=O)[nH]c1=O ?
165
